- PROTOCOL DETAILS: Oral bioavailability in cynomolgus monkey
- Assay type: ADME, organism-based, Macaca fascicularis
- REPORTED CONDITIONS: in vivo
QUANTITY: bioavailability (%)
I only need the number, in %, no unit after it.

*Q* Reported bioavailability for `CC1(C)CCC(c2ccc(Cl)cc2)=C(CN2CCN(c3ccc(C(=O)NS(=O)(=O)c4ccc(N[C@H](CCN5CCOCC5)CSc5ccccc5)c(S(=O)(=O)C(F)(F)F)c4)cc3)CC2)C1` : what is it?
*A* 20

----------
- PROTOCOL DETAILS: Oral bioavailability in CD1 mouse
- Assay type: ADME, organism-based
- REPORTED CONDITIONS: in vivo
QUANTITY: bioavailability (%)
Numeric answer only, unit % assumed.

*Q* Would you mind telling me what bioavailability value was observed for `CC1(C)CCC(c2ccc(Cl)cc2)=C(CN2CCN(c3ccc(C(=O)NS(=O)(=O)c4ccc(N[C@H](CCN5CCOCC5)CSc5ccccc5)c(S(=O)(=O)C(F)(F)F)c4)cc3)CC2)C1` ?
*A* 20

// data source = ChEMBL document CHEMBL1142517
